Where do the numbers come from? From ChEMBL document CHEMBL4359878.

molecular target: Tyrosine-protein kinase JAK2 (Homo sapiens, UniProt O60674); test: Inhibition of N-terminal His-tagged human JAK2 catalytic domain (826 to 1132 resiudes) expressed in baculovirus expression system at 100 nM using FAM-labeled peptide as substrate preincubated for 10 mins followed by substrate addition measured after 1 hr in presence of ATP by mobility shift assay relative to control
Sequence (O60674 whole entry, the tested form may be a part): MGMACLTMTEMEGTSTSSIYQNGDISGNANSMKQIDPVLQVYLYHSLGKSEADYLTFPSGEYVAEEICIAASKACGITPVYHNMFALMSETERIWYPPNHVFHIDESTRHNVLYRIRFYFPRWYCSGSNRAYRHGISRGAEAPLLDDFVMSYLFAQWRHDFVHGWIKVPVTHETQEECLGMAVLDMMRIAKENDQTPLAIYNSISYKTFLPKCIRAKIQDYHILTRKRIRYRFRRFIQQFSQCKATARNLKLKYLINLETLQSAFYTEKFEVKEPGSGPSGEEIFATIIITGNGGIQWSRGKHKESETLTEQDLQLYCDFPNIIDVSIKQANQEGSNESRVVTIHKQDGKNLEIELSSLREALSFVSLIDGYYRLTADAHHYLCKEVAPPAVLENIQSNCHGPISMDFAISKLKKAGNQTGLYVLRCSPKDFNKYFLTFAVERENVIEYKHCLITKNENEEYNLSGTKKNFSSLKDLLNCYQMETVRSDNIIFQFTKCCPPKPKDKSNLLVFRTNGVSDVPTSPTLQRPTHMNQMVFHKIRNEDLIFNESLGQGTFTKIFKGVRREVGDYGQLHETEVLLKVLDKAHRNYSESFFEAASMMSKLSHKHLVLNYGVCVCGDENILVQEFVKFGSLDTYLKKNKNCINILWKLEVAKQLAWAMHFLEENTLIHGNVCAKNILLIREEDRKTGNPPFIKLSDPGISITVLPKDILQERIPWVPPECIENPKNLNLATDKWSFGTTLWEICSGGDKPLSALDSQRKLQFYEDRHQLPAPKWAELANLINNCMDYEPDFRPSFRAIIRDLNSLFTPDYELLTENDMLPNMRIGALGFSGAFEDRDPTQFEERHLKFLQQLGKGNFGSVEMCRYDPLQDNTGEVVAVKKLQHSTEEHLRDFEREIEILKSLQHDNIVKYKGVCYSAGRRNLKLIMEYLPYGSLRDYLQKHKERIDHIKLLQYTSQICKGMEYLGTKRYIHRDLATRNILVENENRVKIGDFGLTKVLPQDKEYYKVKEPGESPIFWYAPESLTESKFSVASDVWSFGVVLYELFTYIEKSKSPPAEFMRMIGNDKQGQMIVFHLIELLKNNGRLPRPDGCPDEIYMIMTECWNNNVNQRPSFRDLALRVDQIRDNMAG

molecule	target-desc	inhibition, %
CC(=O)c1ccc(NC(=O)N2CCN(c3ccnc(Nc4ccc(OCCCN5CCCC5)cc4)n3)CC2)cc1	Tyrosine-protein kinase JAK2 (Homo sapiens, UniProt O60674)	60.7
O=C(Nc1ccc(F)cc1)N1CCN(c2ccnc(Nc3ccc(N4CCOCC4)cc3)n2)CC1	Tyrosine-protein kinase JAK2 (Homo sapiens, UniProt O60674)	54.8
CC(=O)c1ccc(NC(=O)N2CCN(c3ccnc(Nc4ccc(N5CCN(C)CC5)cc4)n3)CC2)cc1	Tyrosine-protein kinase JAK2 (Homo sapiens, UniProt O60674)	80.8
CC(=O)c1ccccc1NC(=O)N1CCN(c2ccnc(Nc3ccc(N4CCOCC4)cc3)n2)CC1	Tyrosine-protein kinase JAK2 (Homo sapiens, UniProt O60674)	18.9
CC(=O)c1ccc(NC(=O)N2CCN(c3ccnc(Nc4ccc(N5CCC(C)CC5)cc4)n3)CC2)cc1	Tyrosine-protein kinase JAK2 (Homo sapiens, UniProt O60674)	53
NC(=O)c1ccc(NC(=O)N2CCN(c3ccnc(Nc4ccc(OCCN5CCCC5)cc4)n3)CC2)cc1	Tyrosine-protein kinase JAK2 (Homo sapiens, UniProt O60674)	53
NC(=O)c1ccccc1NC(=O)N1CCN(c2ccnc(Nc3ccc(N4CCOCC4)cc3)n2)CC1	Tyrosine-protein kinase JAK2 (Homo sapiens, UniProt O60674)	9.5
NS(=O)(=O)c1ccc(NC(=O)N2CCN(c3ccnc(Nc4ccc(OCCN5CCCC5)cc4)n3)CC2)cc1	Tyrosine-protein kinase JAK2 (Homo sapiens, UniProt O60674)	59
N#Cc1ccc(NC(=O)N2CCN(c3ccnc(Nc4ccc(N5CCOCC5)cc4)n3)CC2)cc1	Tyrosine-protein kinase JAK2 (Homo sapiens, UniProt O60674)	78
